biological target: M3 (Homo sapiens, UniProt P20309); experiment: In vitro functional assay of muscarinic acetylcholine receptor activity, M3; conditions: antagonist activity; M3 method not separately described
Sequence (P20309 whole entry): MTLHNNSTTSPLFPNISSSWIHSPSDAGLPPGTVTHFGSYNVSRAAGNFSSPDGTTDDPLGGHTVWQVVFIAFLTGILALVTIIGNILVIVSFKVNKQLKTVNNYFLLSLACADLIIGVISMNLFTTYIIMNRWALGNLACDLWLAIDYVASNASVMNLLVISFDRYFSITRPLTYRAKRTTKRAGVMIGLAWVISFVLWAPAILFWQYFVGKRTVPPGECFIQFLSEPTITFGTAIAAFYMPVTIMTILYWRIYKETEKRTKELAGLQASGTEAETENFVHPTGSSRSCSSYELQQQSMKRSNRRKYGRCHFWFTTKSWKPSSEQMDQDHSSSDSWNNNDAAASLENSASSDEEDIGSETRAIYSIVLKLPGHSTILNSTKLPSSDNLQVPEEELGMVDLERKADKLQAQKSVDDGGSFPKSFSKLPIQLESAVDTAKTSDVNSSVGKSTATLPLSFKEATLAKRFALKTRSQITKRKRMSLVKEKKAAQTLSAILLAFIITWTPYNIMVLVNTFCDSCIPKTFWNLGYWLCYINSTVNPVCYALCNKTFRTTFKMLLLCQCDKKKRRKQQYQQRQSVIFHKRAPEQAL
Readout Kind: IC50

N#Cc1ccc(N2CCN3C(=O)[C@@H](CCCc4cccc5ncnn45)C[C@H]3C2)nc1    0.1 to 1 µM
O=C1C(CCCc2cccc3ncnn23)C[C@H]2CN(c3ccc(C(F)F)cn3)CCN12 (mixture of isomers)    1 to 10 µM
O=C1[C@@H](CCCc2cccc3ncnn23)C[C@H]2CN(c3ccnc(C(F)(F)F)c3)CCN12    1 to 10 µM
O=C1[C@@H](CCCc2cccc3ncnn23)C[C@H]2CN(c3ncc(F)cn3)CCN12    > 10 µM
O=C1[C@@H](CCCc2cccc3ncsc23)C[C@H]2CN(c3ccncc3)CCN12    0.1 to 1 µM
N#Cc1ccc(N2CCN3C(=O)[C@@H](CNCc4cccc5ncnn45)C[C@H]3C2)nc1    > 10 µM
N#Cc1ccc(N2CCN3C(=O)[C@@H](CCCc4cccn5ncnc45)C[C@H]3C2)nc1    < 0.1 µM
O=C1[C@@H](CCCc2cccn3ncnc23)C[C@H]2CN(c3ncccn3)CCN12    > 10 µM
N#Cc1ccc(N2CCN3C(=O)[C@@H](CCCc4cccc5ncccc45)C[C@H]3C2)nc1    1 to 10 µM
O=C1[C@@H](CCCc2cccc3ncnn23)C[C@H]2CN(c3ccc(CO)cn3)CCN12    > 10 µM

Ask | Name the recorded IC50 for O=C1[C@@H](CCCc2cccc3ncnn23)C[C@H]2CN(c3ccc(Cl)cn3)CCN12 .
Reply | 1 to 10 µM

Ask | Name the recorded IC50 for N#Cc1ccc(N2CCN3C(=O)[C@@H](CCCc4cccc5nccnc45)C[C@H]3C2)nc1 .
Reply | 0.1 to 1 µM

Ask | Name the recorded IC50 for N#Cc1cc(N2CCN3C(=O)[C@@H](CCCc4cccc5ncsc45)C[C@H]3C2)ccn1 .
Reply | 0.1 to 1 µM

Ask | Name the recorded IC50 for O=C1[C@@H](CCCc2cccc3ncnn23)C[C@H]2CN(c3ccc(OC(F)F)cn3)CCN12 .
Reply | 1 to 10 µM

Ask | Name the recorded IC50 for COc1ccc(N2CCN3C(=O)C(CCCc4cccn5ncnc45)C[C@H]3C2)nc1 (mixture of isomers) .
Reply | 1 to 10 µM

Ask | Name the recorded IC50 for O=C1[C@@H](CCCc2cccc3nccnc23)C[C@H]2CN(c3ccc(F)cn3)CCN12 .
Reply | 1 to 10 µM

Ask | Name the recorded IC50 for N#Cc1ccc(N2CCN3C(=O)[C@@H](CCCc4cccn5ccnc45)C[C@H]3C2)nc1 .
Reply | 1 to 10 µM

Ask | Name the recorded IC50 for Cn1ncc2cccc(CCC[C@H]3C[C@H]4CN(c5ccc(C#N)cn5)CCN4C3=O)c21 .
Reply | 1 to 10 µM

Ask | Name the recorded IC50 for O=C1[C@@H](CCCc2cccc3ncsc23)C[C@H]2CN(c3ccccn3)CCN12 .
Reply | 1 to 10 µM

Ask | Name the recorded IC50 for O=C1[C@@H](CCCc2cccn3ncnc23)C[C@H]2CN(c3ccc(F)cc3F)CCN12 .
Reply | > 10 µM

The reported measurements were obtained from patent US12054487B2.
